# reported EC50; entries follow
# Tgt: HDAC6 (Homo sapiens, UniProt Q9UBN7)
# Construct: endogenous in cells
# Sequence (Q9UBN7 whole entry): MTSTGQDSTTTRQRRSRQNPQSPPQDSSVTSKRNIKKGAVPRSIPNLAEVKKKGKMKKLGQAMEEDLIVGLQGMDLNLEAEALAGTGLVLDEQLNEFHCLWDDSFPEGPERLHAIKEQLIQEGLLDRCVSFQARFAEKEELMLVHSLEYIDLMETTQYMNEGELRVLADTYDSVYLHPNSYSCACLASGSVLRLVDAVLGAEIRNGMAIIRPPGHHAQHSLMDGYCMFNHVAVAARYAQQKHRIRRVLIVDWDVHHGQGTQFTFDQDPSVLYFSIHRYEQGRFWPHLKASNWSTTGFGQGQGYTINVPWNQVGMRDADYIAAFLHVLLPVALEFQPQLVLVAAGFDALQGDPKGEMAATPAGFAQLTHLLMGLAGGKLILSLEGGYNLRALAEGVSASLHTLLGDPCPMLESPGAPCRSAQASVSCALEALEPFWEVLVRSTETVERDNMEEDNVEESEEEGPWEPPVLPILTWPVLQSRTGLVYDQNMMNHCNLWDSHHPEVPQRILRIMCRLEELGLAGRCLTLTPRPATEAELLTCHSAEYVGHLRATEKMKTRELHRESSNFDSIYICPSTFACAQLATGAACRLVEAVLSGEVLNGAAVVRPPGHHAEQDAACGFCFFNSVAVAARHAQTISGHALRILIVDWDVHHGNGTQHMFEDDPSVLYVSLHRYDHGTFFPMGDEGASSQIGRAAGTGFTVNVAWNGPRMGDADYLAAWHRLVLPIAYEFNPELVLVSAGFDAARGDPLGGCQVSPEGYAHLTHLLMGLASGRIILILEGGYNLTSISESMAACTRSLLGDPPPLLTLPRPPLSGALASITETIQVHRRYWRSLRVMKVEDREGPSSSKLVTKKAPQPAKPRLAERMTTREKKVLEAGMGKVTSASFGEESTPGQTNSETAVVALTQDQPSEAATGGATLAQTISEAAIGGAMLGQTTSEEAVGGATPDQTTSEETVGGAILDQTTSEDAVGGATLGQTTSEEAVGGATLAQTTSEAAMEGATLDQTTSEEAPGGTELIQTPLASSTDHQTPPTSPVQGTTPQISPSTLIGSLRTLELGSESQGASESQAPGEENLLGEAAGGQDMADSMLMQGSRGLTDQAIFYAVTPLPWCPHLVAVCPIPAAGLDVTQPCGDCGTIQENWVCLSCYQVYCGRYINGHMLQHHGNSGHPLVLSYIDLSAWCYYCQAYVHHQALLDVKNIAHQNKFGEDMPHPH
# Experiment summary: Tubulin acetylation cytoblot assay (A549 cells)
# Cond: 17-18 h incubation, tubulin acetylation as marker of HDAC6 inhibition, read-out: Tub-Ac EC50

{"Molecule": "CC(C)(c1ccccc1Cl)N1CCC(Nc2ccc(C(=O)NO)cc2)C1=O (stereo not drawn) [Example 48]", "EC50 (µM)": 4.6}
{"Molecule": "O=C(NO)c1ccc(NC2CCN(c3ccc(F)c(Cl)c3)C2=O)cc1 (stereo not drawn) [Example 20]", "EC50 (µM)": 0.96}
{"Molecule": "O=C(NO)c1ccc(NC2CCN(c3cc(F)cc(Cl)c3)C2=O)cc1 (stereo not drawn) [Example 21]", "EC50 (µM)": 4.69}
{"Molecule": "O=C(NO)c1ccc(NC2CCN(c3ccc(Cl)cc3)C2)cc1 (stereo not drawn) [Example 80]", "EC50 (µM)": 4.26}
{"Molecule": "O=C(NO)c1ccc(NC2CCN(c3ccc4ccccc4c3)C2=O)cc1 (stereo not drawn) [Example 38]", "EC50 (µM)": 1.06}
{"Molecule": "O=C(NO)c1ccc(NC2CCN(C3CCCCC3)C2=O)cc1 (stereo not drawn) [Example 41]", "EC50 (µM)": 5.15}
{"Molecule": "O=C(NO)c1ccc(NC2CCN(c3ccccc3F)C2=O)cc1 (stereo not drawn) [Example 2]", "EC50 (µM)": 4.02}
{"Molecule": "C[C@H](c1ccccc1)N1CCC(Nc2ccc(C(=O)NO)cc2)C1=O (stereo partly drawn) [Example 45]", "EC50 (µM)": 8.3}
{"Molecule": "CCCCc1ccc(N2CCC(Nc3ccc(C(=O)NO)cc3)C2=O)cc1 (stereo not drawn) [Example 15]", "EC50 (µM)": 4.9}

---

# Tgt: recombinant human HDAC8 (Homo sapiens, UniProt Q9BY41)
# Construct: made in house; host or cells: insect cells
# Sequence (Q9BY41 whole entry): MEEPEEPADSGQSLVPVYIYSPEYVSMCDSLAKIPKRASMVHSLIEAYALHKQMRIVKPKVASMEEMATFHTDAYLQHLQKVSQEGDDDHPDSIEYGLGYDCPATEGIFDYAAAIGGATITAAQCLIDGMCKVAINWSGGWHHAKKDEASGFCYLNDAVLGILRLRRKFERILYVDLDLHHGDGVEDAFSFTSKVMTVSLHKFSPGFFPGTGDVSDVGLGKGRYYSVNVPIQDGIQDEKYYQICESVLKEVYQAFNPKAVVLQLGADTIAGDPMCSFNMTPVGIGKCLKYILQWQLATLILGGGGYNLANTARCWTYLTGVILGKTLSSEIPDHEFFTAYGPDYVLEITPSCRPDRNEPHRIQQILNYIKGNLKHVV
# Experiment summary: HDAC8 inhibition: recombinant HDAC8 fluorometric assay
# Type: biochemical
# Cond: recombinant human HDAC8, substrate Ac-Arg-His-Lys-Lys(ε-acetyl)-AMC; read-out: HDAC8 IC50
Measurement type: IC50 (nM)

{"Compound": "O=C(NO)c1ccc(NC2CC(=O)N(Cc3ccccc3)C2)cc1 (centres unmarked) [Example 75]", "Reported measurement": 860}
{"Compound": "CC1C(=O)N(c2ccc(Cl)cc2)CC1Nc1ccc(C(=O)NO)cc1 (centres unmarked) [Example 78]", "Reported measurement": 1830}
{"Compound": "CC(C)c1cccc(N2CCC(Nc3ccc(C(=O)NO)cc3)C2=O)c1 (centres unmarked) [Example 13]", "Reported measurement": 740}
{"Compound": "O=C(NO)c1ccc(NC2CCN(CCc3ccccc3)C2=O)cc1 (centres unmarked) [Example 43]", "Reported measurement": 390}
{"Compound": "CC(C)(c1ccccc1Cl)N1CCC(Nc2ccc(C(=O)NO)cc2)C1=O (centres unmarked) [Example 48]", "Reported measurement": 680}

---

# Tgt: HDAC6 (Homo sapiens)
# Construct: endogenous in cells
# Experiment summary: Tubulin acetylation cytoblot assay (A549 cells)
# Cond: 17-18 h incubation, tubulin acetylation as marker of HDAC6 inhibition, read-out: Tub-Ac EC50
Mark criterion met only when EC50 stays strictly below 3000 nM. Values equal to the cut-off are criterion not met.

{"Molecule": "CC1(Nc2ccc(C(=O)NO)cc2)CCN(c2ccc3ncccc3c2)C1=O (stereo not drawn) [Example 63]", "Class name": "criterion met"}
{"Molecule": "O=C(NO)c1ccc(NC2CCN(Cc3ccccc3)C2=O)cc1 (stereo not drawn) [Example 42]", "Class name": "criterion not met"}
{"Molecule": "O=C(NO)c1ccc(NC2CCN(c3ccc(Oc4ccccc4)cc3)C2=O)cc1 (stereo not drawn) [Example 31]", "Class name": "criterion not met"}
{"Molecule": "O=C(NO)c1ccc(NC2CCN(c3cccc(-n4cccc4)c3)C2=O)cc1 (stereo not drawn) [Example 33]", "Class name": "criterion met"}
{"Molecule": "CC1(Nc2ccc(C(=O)NO)cc2)CCN(c2cccc3cccnc23)C1=O (stereo not drawn) [Example 62]", "Class name": "criterion met"}
{"Molecule": "CC(C)(c1cccc(Cl)c1)N1CCC(Nc2ccc(C(=O)NO)cc2)C1=O (stereo not drawn) [Example 49]", "Class name": "criterion not met"}
{"Molecule": "O=C(NO)c1ccc(NC2CCN(c3cccc(F)c3)C2=O)cc1 (stereo not drawn) [Example 3]", "Class name": "criterion met"}
{"Molecule": "CC(C)(c1cccc2ccccc12)N1CCC(Nc2ccc(C(=O)NO)cc2)C1=O (stereo not drawn) [Example 52]", "Class name": "criterion met"}
{"Molecule": "O=C(NO)c1ccc(NC2CCN(c3ccc(Cl)cc3Cl)C2)cc1 (stereo not drawn) [Example 82]", "Class name": "criterion met"}

Origin of measurements: patent US8404738B2
